Measured values drawn from paper PMC8468439 for this set.

In this section, each of the molecules is paired with its reported Mic (minimum inhibitory concentration).
# Test system: E. coli
# ASSAY PROTOCOL: Antimicrobial screening, hole-plate and filter disc
# Format: cell-based, Escherichia coli
# Description: All investigations were executed at the Biology department, Faculty of Science, Benha University, Egypt. The antimicrobial activities of all the synthesized molecules were determined in vitro, using the hole-plate and filter disc methodologies. The investigated compounds were dissolved in 10% acetone (v/v). […]

| MOLECULE | Mic (minimum inhibitory concentration) |
| --- | --- |
| N#CC12C(=N)NC(=O)N=C1N=C(CN1C(=O)c3c(Br)c(Br)c(Br)c(Br)c3C1=O)OC2c1ccccc1 (centres unmarked) [Compound 4a] | 250 |
| N#CC12C(=O)NN=C1N=C(CN1C(=O)c3c(Br)c(Br)c(Br)c(Br)c3C1=O)OC2c1ccccc1 (centres unmarked) [Compound 5] | 250 |
| N#CC12C(=O)NC(=S)N=C1N=C(CN1C(=O)c3c(Br)c(Br)c(Br)c(Br)c3C1=O)OC2c1ccccc1 (centres unmarked) [Compound 2b] | 250 |
| N#CC12C(=N)NC(=S)N=C1N=C(CN1C(=O)c3c(Br)c(Br)c(Br)c(Br)c3C1=O)OC2c1ccccc1 (centres unmarked) [Compound 4b] | 250 |

Moving on to another molecule below.
Query: Quick one: Mic (minimum inhibitory concentration) of N#CC12C(=N)NN=C1N=C(CN1C(=O)c3c(Br)c(Br)c(Br)c(Br)c3C1=O)OC2c1ccccc1 (centres unmarked) [Compound 3] ?
Reply: 125
